As shown below, each of these molecules has a reported relative viability value.
tested on: LOU-NH91; test: relative viability (nuclei count vs DMSO), 5 days (fraction); higher = more cells survive; details: first compound 500 µM

molecule: O=C(O)CCCCC(CCSCc1ccccc1)SCc1ccccc1 (centres undefined) [CPI-613] + CS(=O)(=O)CCNCc1ccc(-c2ccc3ncnc(Nc4ccc(OCc5cccc(F)c5)c(Cl)c4)c3c2)o1 [Lapatinib] (partner 2 µM)
relative viability: 0.699

molecule: O=C(O)CCCCC(CCSCc1ccccc1)SCc1ccccc1 (centres undefined) [CPI-613] + CS(=O)(=O)N1CCN(Cc2cc3nc(-c4cccc5[nH]ncc45)nc(N4CCOCC4)c3s2)CC1 [Pictilisib] (partner 1 µM)
relative viability: 0.511

molecule: O=C(O)CCCCC(CCSCc1ccccc1)SCc1ccccc1 (centres undefined) [CPI-613] + COc1cccc2cc(-c3nc([C@H]4CC[C@H](C(=O)O)CC4)n4ncnc(N)c34)[nH]c12 [OSI-027] (partner 0.5 µM)
relative viability: 0.672

molecule: O=C(O)CCCCC(CCSCc1ccccc1)SCc1ccccc1 (centres undefined) [CPI-613] + COc1cc2c(Oc3ccc(NC(=O)C4(C(=O)Nc5ccc(F)cc5)CC4)cc3F)ccnc2cc1OCCCN1CCOCC1 [Foretinib] (partner 0.25 µM)
relative viability: 0.916

====

system: 201T; assay: relative viability (nuclei count vs DMSO), 5 days (fraction); higher = more cells survive; conditions: first compound 0.0002 µM
relative viability: recorded values

compound: CC(=O)O[C@@]12CO[C@@H]1C[C@H](O)[C@@]1(C)C(=O)[C@H](O)C3=C(C)[C@@H](OC(=O)[C@H](O)[C@@H](NC(=O)OC(C)(C)C)c4ccccc4)C[C@@](O)([C@@H](OC(=O)c4ccccc4)[C@H]21)C3(C)C [Docetaxel] + C[C@@H](Oc1cc(-c2cnn(C3CCNCC3)c2)cnc1N)c1c(Cl)ccc(F)c1Cl [Crizotinib] (partner 1 µM)
relative viability: 0.983

compound: CC(=O)O[C@@]12CO[C@@H]1C[C@H](O)[C@@]1(C)C(=O)[C@H](O)C3=C(C)[C@@H](OC(=O)[C@H](O)[C@@H](NC(=O)OC(C)(C)C)c4ccccc4)C[C@@](O)([C@@H](OC(=O)c4ccccc4)[C@H]21)C3(C)C [Docetaxel] + CC(=O)Nc1cccc(-n2c(=O)n(C3CC3)c(=O)c3c(Nc4ccc(I)cc4F)n(C)c(=O)c(C)c32)c1 [Trametinib] (partner 0.02 µM)
relative viability: 0.7

compound: CC(=O)O[C@@]12CO[C@@H]1C[C@H](O)[C@@]1(C)C(=O)[C@H](O)C3=C(C)[C@@H](OC(=O)[C@H](O)[C@@H](NC(=O)OC(C)(C)C)c4ccccc4)C[C@@](O)([C@@H](OC(=O)c4ccccc4)[C@H]21)C3(C)C [Docetaxel] + Cc1nc(Nc2ncc(C(=O)Nc3c(C)cccc3Cl)s2)cc(N2CCN(CCO)CC2)n1 [Dasatinib] (partner 0.075 µM)
relative viability: 0.562

compound: CC(=O)O[C@@]12CO[C@@H]1C[C@H](O)[C@@]1(C)C(=O)[C@H](O)C3=C(C)[C@@H](OC(=O)[C@H](O)[C@@H](NC(=O)OC(C)(C)C)c4ccccc4)C[C@@](O)([C@@H](OC(=O)c4ccccc4)[C@H]21)C3(C)C [Docetaxel] + N=C(N)NC(=N)NCCc1ccccc1 [Phenformin] (partner 250 µM)
relative viability: 0.4

compound: CC(=O)O[C@@]12CO[C@@H]1C[C@H](O)[C@@]1(C)C(=O)[C@H](O)C3=C(C)[C@@H](OC(=O)[C@H](O)[C@@H](NC(=O)OC(C)(C)C)c4ccccc4)C[C@@](O)([C@@H](OC(=O)c4ccccc4)[C@H]21)C3(C)C [Docetaxel] + Nc1nc2[nH]cc(CCc3ccc(C(=O)N[C@@H](CCC(=O)O)C(=O)O)cc3)c2c(=O)[nH]1 [Pemetrexed] (partner 0.2 µM)
relative viability: 0.36

compound: CC(=O)O[C@@]12CO[C@@H]1C[C@H](O)[C@@]1(C)C(=O)[C@H](O)C3=C(C)[C@@H](OC(=O)[C@H](O)[C@@H](NC(=O)OC(C)(C)C)c4ccccc4)C[C@@](O)([C@@H](OC(=O)c4ccccc4)[C@H]21)C3(C)C [Docetaxel] + CS(=O)(=O)CCNCc1ccc(-c2ccc3ncnc(Nc4ccc(OCc5cccc(F)c5)c(Cl)c4)c3c2)o1 [Lapatinib] (partner 2 µM)
relative viability: 0.917

Provenance of the data: the supplement of paper PMC10307832
